Test: Pharmacokinetic study after single oral and IV administration of KD025 to rats
Type: in vivo, Sprague–Dawley rats
Details: Sprague-Dawley, plasma; rat, IV 2 mg/kg, n = 5
assay-endpoint: half-life (h)
Give the value, in units of h, as a plain number.

Exam item: Any idea what half-life was measured for `CC(C)NC(=O)COc1cccc(-c2nc(Nc3ccc4[nH]ncc4c3)c3ccccc3n2)c1` ?
Marked response: 1.47

---

Experiment: Pharmacokinetic study after single oral and IV administration of KD025 to rats
Assay type: in vivo, Sprague–Dawley rats
Conditions: Sprague-Dawley, plasma; rat, PO 5 mg/kg, n = 5
assay-endpoint: AUC(0-t)

Exam item: Any idea what AUC(0-t) was measured for `CC(C)NC(=O)COc1cccc(-c2nc(Nc3ccc4[nH]ncc4c3)c3ccccc3n2)c1` ?
Marked response: 763 ng·h/mL

---

Assay: Pharmacokinetic study after single oral and IV administration of KD025 to rats
Type: in vivo, Sprague–Dawley rats
Details: Sprague-Dawley, plasma; rat, PO 5 mg/kg, n = 5, mean ± SD
assay-endpoint: Tmax (h)
Give the value, in units of h, as a plain number.

Exam item: Any idea what Tmax was measured for `CC(C)NC(=O)COc1cccc(-c2nc(Nc3ccc4[nH]ncc4c3)c3ccccc3n2)c1` ?
Marked response: 2.2

---

Test: Pharmacokinetic study after single oral and IV administration of KD025 to rats
Type: in vivo, Sprague–Dawley rats
Details: Sprague-Dawley, rat, plasma, oral, PO 5 mg/kg vs IV 2 mg/kg, AUC∞PO/AUC∞IV × 100
assay-endpoint: bioavailability

Exam item: Any idea what bioavailability was measured for `CC(C)NC(=O)COc1cccc(-c2nc(Nc3ccc4[nH]ncc4c3)c3ccccc3n2)c1` ?
Marked response: ~37%

---

Assay: Pharmacokinetic study after single oral and IV administration of KD025 to rats
Format: in vivo, Sprague–Dawley rats
Settings: Sprague-Dawley, plasma; rat, PO 5 mg/kg, n = 5
Method: The feasibility of the developed LC/MS–MS method was examined by performing pharmacokinetic studies of KD025 in rats. […] For sample preparation, 100 μL of IS in acetonitrile solution (250 ng/mL) was added to 50 μL of plasma samples, followed by vortex-mixing in 1 min for deproteinization. […] The plasma peak concentration (Cmax) and time to reach Cmax (Tmax) were directly determined from each individual plasma concentration–time profile. […]
assay-endpoint: MRT (h)
Give the value, in units of h, as a plain number.

Exam item: Any idea what MRT was measured for `CC(C)NC(=O)COc1cccc(-c2nc(Nc3ccc4[nH]ncc4c3)c3ccccc3n2)c1` ?
Marked response: 7.91

---

Assay: Pharmacokinetic study after single oral and IV administration of KD025 to rats
Format: in vivo, Sprague–Dawley rats
Details: Sprague-Dawley, plasma; rat, IV 2 mg/kg, n = 5
assay-endpoint: AUC(0-t) (ng·h/mL)
Give the value, in units of ng·h/mL, as a plain number.

Exam item: Any idea what AUC(0-t) was measured for `CC(C)NC(=O)COc1cccc(-c2nc(Nc3ccc4[nH]ncc4c3)c3ccccc3n2)c1` ?
Marked response: 872

---

Experiment: Pharmacokinetic study after single oral and IV administration of KD025 to rats
Assay type: in vivo, Sprague–Dawley rats
Conditions: Sprague-Dawley, plasma; rat, IV 2 mg/kg, n = 5; read-out: Vss
assay-endpoint: Vd

Exam item: Any idea what Vd was measured for CC(C)NC(=O)COc1cccc(-c2nc(Nc3ccc4[nH]ncc4c3)c3ccccc3n2)c1 [KD025] ?
Marked response: 1.78 L/kg
